Just for reference, the supplement of paper PMC13094657 is where these values come from.

Tested on: MDA-MB-231
experiment: cell viability relative to vehicle unstimulated control (fraction); higher = more viable cells
measurement setup: pre-treatment time: 18 h then 24 h IFNg/TNF
Labelling field: enter Fulfilled if recorded cell viability is less than 1. Enter Not fulfilled if it equals or exceeds that cut-off.

For C=C1[C@H](OC(=O)c2ccccc2)C[C@H]2[C@@H](/C=C(\C)C(=O)[C@@]3(OC(C)=O)C[C@H](C)[C@H](OC(=O)c4ccccc4)[C@@H]3[C@H]1OC(C)=O)C2(C)C [Euphorbia factor L2] (compound dose: 10 uM) , is the recorded cell viability below the cut-off of 1?
Not fulfilled

For COc1cc2c3cc1Oc1cc(ccc1O)C[C@@H]1c4c(cc(OC)c(O)c4Oc4ccc(cc4)C[C@H]3N(C)CC2)CCN1C [Curine] (compound dose: 10 uM) , is the recorded cell viability below the cut-off of 1?
Fulfilled

For C=C1CC[C@H]2[C@@H](/C=C(\C)C(=O)[C@@]3(OC(C)=O)C[C@H](C)[C@H](OC(=O)Cc4ccccc4)[C@@H]3[C@H]1OC(C)=O)C2(C)C [Deoxy euphorbia factor L1] (compound dose: 10 uM) , is the recorded cell viability below the cut-off of 1?
Not fulfilled

For CC(=O)OC(C)(C)/C=C/C(=O)[C@](C)(O)[C@H]1[C@H](O)C[C@@]2(C)[C@@H]3CC=C4[C@@H](C=C(O)C(=O)C4(C)C)[C@]3(C)C(=O)C[C@]12C [Cucurbitacin E] (compound dose: 10 uM) , is the recorded cell viability below the cut-off of 1?
Fulfilled

For C[C@@H]1CC[C@@]2(OC1)O[C@H]1[C@@H](O)[C@H]3[C@@H]4CC[C@H]5C[C@@H](O[C@@H]6O[C@H](CO)[C@H](O[C@@H]7O[C@H](CO)[C@@H](O)[C@H](O[C@@H]8OC[C@@H](O)[C@H](O)[C@H]8O)[C@H]7O[C@@H]7O[C@H](CO)[C@H](O)[C@H](O[C@@H]8O[C@H](CO)[C@@H](O)[C@H](O)[C@H]8O)[C@H]7O)[C@H](O)[C@H]6O)[C@H](O)C[C@]5(C)[C@H]4CC[C@]3(C)[C@H]1[C@@H]2C [Digitonin] (compound dose: 10 uM) , is the recorded cell viability below the cut-off of 1?
Fulfilled

For C=C1[C@@H]2CC[C@H]3[C@]4(C)C[C@H](O[C@@H]5O[C@H](CO)[C@@H](OS(=O)(=O)O)[C@H](OS(=O)(=O)O)[C@H]5OC(=O)CC(C)C)CC(C(=O)O)(C(=O)O)[C@H]4CC[C@]3(C2)[C@H]1O [Carboxyatractyloside (dipotassium)] (compound dose: 10 uM) , is the recorded cell viability below the cut-off of 1?
Not fulfilled

Shift focus to the following entry.
For C[C@]1(C(=O)O)CCC[C@]2(C)c3cc(O)ccc3CC[C@@H]12 [Podocarpic acid] (compound dose: 10 uM) , is the recorded cell viability below the cut-off of 1?
Fulfilled

----------
Test system: MDA-MB-231
experiment: kynurenine production, fold change vs DMSO IFNg/TNF control; higher = more kynurenine produced (less inhibition)
measurement setup: pre-treatment time: 18 h then 24 h IFNg/TNF
observed property: kynurenine production
One number for each entry.

Provide value of kynurenine production for this record tested with MDA-MB-231: CC(=O)O[C@@H]1[C@H]2[C@@H](OC(=O)Cc3ccccc3)[C@@H](C)C[C@]2(OC(C)=O)C(=O)/C(C)=C/[C@@H]2[C@H](CC[C@]13CO3)C2(C)C [Euphorbia factor L1] (compound dose: 10 uM)
1.07

Lab note: each molecule below needs its kynurenine production filled in.
1. CN1[C@@H]2CC[C@H]1C[C@H](O)C2 [Pseudotropine] (compound dose: 10 uM)
2. CC(C)[C@]12O[C@H]1[C@@H]1O[C@]13[C@]1(O[C@H]1C[C@H]1C4=C(CC[C@@]13C)C(=O)OC4)[C@@H]2O [Triptolide] (compound dose: 10 uM)

1. 1.14
2. 0.152

Lab note: each molecule below needs its kynurenine production filled in.
1. C=C(CO)C(=O)O[C@H]1CC(=C)[C@@H]2C[C@H](O)C(=C)[C@@H]2[C@H]2OC(=O)C(=C)[C@@H]21 [Cynaropicrin] (compound dose: 10 uM)
2. C[C@]1(C(=O)O)CCC[C@]2(C)c3cc(O)ccc3CC[C@@H]12 [Podocarpic acid] (compound dose: 10 uM)

[0.0672, 0.852]
